Cited source for all entries: patent US10689383B2

# reported IC50; entries follow
Biological target: human RORγt (Ligand Binding Domain) (Homo sapiens, UniProt P51449)
Construct: purchased Crelux (Planegg, Germany) batch no PC5032-1
Sequence (P51449 269-508 limits assumed): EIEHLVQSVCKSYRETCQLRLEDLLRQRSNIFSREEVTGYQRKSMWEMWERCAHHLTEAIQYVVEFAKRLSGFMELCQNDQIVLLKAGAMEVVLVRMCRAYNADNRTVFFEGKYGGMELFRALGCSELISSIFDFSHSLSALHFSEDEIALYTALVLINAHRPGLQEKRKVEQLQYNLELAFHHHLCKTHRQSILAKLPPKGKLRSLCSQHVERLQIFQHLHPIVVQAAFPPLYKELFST
Experiment: Fluorescence Polarization (FP) Assay
Details: Fluorescence Polarization (FP) Assay; values given as upper bounds of activity ranges; read-out: FP activity range

// worked examples, IC50 included
COMPOUND	OBSERVED VALUE
CC1CCN(c2ncnc(N[C@H](CC(C)(C)C)C(N)=O)c2F)C1c1ccc(C(F)(F)F)cc1 (some centres unmarked)	< 2000 nM
OC1(CNc2ncnc(N3CCC[C@@H]3c3ccc(C(F)(F)F)cc3)c2F)CCOC1 (some centres unmarked)	< 500 nM
CC(C)(C)C[C@@H](Nc1ncnc(N2CCOCC2c2ccc(C(F)(F)F)cc2)c1F)C(N)=O (some centres unmarked)	< 2000 nM

Query string: Give the measured IC50 of NC(=O)Cc1ccc(Cn2ccc3c(N4CCOCC4c4ccccc4)ncnc32)cc1 (centres unmarked) .
Result string: < 500 nM

Query string: Now the compound Fc1c(NCc2ccc(Cn3ccnc3)cc2)ncnc1N1CCCC1c1ccc(C(F)(F)F)cc1 (centres unmarked)
Result string: < 500 nM

Query string: Same again, this time with NC(=O)Cc1ccc(CNc2ncnc(N3CCCC3c3cccc(Br)c3)c2F)cc1 (centres unmarked)
Result string: < 500 nM

Query string: For NC(=O)Cc1ccc(CN2CCc3c2ncnc3N2CCC[C@@H]2c2ccc(C(F)(F)F)cc2)cc1 then?
Result string: < 500 nM

Query string: How about this compound: O=S(=O)(NC1CC1)c1ccc(CNc2ncnc(N3CCOCC3c3ccccc3)c2F)cc1 (centres unmarked)
Result string: < 500 nM

Query string: What do we get for COCc1cccc(CNc2ncnc(N3CCCC3c3ccc(C(F)(F)F)cc3)c2F)c1 (centres unmarked) ?
Result string: < 2000 nM

Query string: Quick one: CCOc1ccc(C2CCCN2c2ncnc(NCc3ccc(CC(N)=O)cc3)c2F)cc1 (centres unmarked)
Result string: < 500 nM
